Test system: ACHN cell line
experimental_protocol: drug screen of the SelleckChem kinase inhibitor library with and without 5 uM SU-329, Cell-Titer Glo after 5 days
Format: cell-based
run_parameters: kinase inhibitor at 200 nM with and without 5 uM SU329; ACHN cell line; 5 days; Cell-Titer Glo
# log2fc annotations

compound	log2fc
Oc1cc(O)cc(/C=C/c2ccc(O)c(O)c2)c1	0.5447
CO[C@H]1C[C@@H]2CC[C@@H](C)[C@@](O)(O2)C(=O)C(=O)N2CCCC[C@H]2C(=O)O[C@H]([C@H](C)C[C@@H]2CC[C@@H](OP(C)(C)=O)[C@H](OC)C2)CC(=O)[C@H](C)/C=C(\C)[C@@H](O)[C@@H](OC)C(=O)[C@H](C)C[C@H](C)/C=C/C=C/C=C/1C	−1.384
Cc1cc2c(F)c(Oc3ncnn4cc(OC[C@@H](C)OC(=O)[C@H](C)N)c(C)c34)ccc2[nH]1 [Brivanib Alaninate (BMS-582664)]	0.04321
COCC(=O)NC/C=C/c1ccc2ncnc(Nc3ccc(Oc4ccc(C)nc4)c(C)c3)c2c1 [CP-724714, reference compound]	0.2836
O=C(O)[C@]1(Cc2cccc(Nc3nccs3)n2)CC[C@@H](Oc2cccc(Cl)c2F)CC1	−0.2429
CC(C)NC[C@@H](C(=O)N1CCN(c2ncnc3c2[C@H](C)C[C@H]3O)CC1)c1ccc(Cl)cc1	−0.5082

Would you kindly look at the next entry?
**Q:** Fill in reported log2fc for this entry: Cc1ccc(C(=O)Nc2ccc(CN3CCN(C)CC3)c(C(F)(F)F)c2)cc1C#Cc1cnc2cccnn12
**A:** −0.4485
